System: Rattus norvegicus
Experiment: Antihyperalgesic activity in Sprague-Dawley rat assessed as lesioned paw pressure threshold at 30 ug/kg, icv after 45 mins
Assay type: functional
Each entry below carries its reported Activity.

compound	Activity, g
O=C1CCC2N1CC(=O)N2c1ccccc1 (stereo unspecified)	52.7
Cc1ccccc1N1C(=O)CN2C(=O)CCC21 (stereo unspecified)	55.3
N#Cc1cccc(N2C(=O)CN3C(=O)CCC32)c1 (stereo unspecified)	55.4
Cc1cccc(C)c1NC(=O)CN1CCCC1=O	49.5
NCC1(CC(=O)O)CCCCC1	43.5
CC(C)c1cccc(N2C(=O)CN3C(=O)CCC32)c1 (stereo unspecified)	43.7
